# test_system: CRF1 receptor (Homo sapiens, UniProt P34998)
# Sequence (P34998 24-415): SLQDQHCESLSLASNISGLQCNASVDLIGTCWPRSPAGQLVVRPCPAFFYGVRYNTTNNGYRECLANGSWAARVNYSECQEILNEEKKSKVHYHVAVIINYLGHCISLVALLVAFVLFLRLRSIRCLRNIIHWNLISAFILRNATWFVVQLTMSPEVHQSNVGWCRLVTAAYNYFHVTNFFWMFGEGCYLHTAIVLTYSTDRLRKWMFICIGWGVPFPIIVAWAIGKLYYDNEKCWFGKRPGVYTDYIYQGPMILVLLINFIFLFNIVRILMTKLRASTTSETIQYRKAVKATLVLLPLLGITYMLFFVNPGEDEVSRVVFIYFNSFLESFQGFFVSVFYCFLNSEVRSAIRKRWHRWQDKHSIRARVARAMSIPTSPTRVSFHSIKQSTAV
# protocol_description: CRF1 receptor binding kinetics (association/dissociation rate constants, method of Fleck et al.)
# cond: dissociation rate constant
value_kind: k^−1

[[record]]
entry_smiles = "CCCN(Cc1ccc(-c2ccccn2)cc1)c1cc(C)nc2c(-c3cnc(N(C)C)cc3C)c(C)nn12"
test_system = "CRF1 receptor (Homo sapiens, UniProt P34998)"
observed_result = "<0.001 min⁻¹"

[[record]]
entry_smiles = "CCCN(Cc1ccc(-c2ccccc2)cc1)c1cc(C)nc2c(-c3cnc(N(C)C)cc3C)c(C)nn12"
test_system = "CRF1 receptor (Homo sapiens, UniProt P34998)"
observed_result = "<0.001 min⁻¹"

[[record]]
entry_smiles = "CCCN(Cc1ccc(-c2csc(N(C)C)n2)cc1)c1cc(C)nc2c(-c3cnc(N(C)C)cc3C)c(C)nn12"
test_system = "CRF1 receptor (Homo sapiens, UniProt P34998)"
observed_result = "<0.001 min⁻¹"

[[record]]
entry_smiles = "CCCN(Cc1ccc(-n2cccn2)cc1)c1cc(C)nc2c(-c3cnc(N(C)C)cc3C)c(C)nn12"
test_system = "CRF1 receptor (Homo sapiens, UniProt P34998)"
observed_result = "<0.001 min⁻¹"

[[record]]
entry_smiles = "CCCN(Cc1ccc(-n2cncn2)cc1)c1cc(C)nc2c(-c3cnc(N(C)C)cc3C)c(C)nn12"
test_system = "CRF1 receptor (Homo sapiens, UniProt P34998)"
observed_result = "0.0021 min⁻¹"

